B1: HHH_rd2_0155 (parent)
chain: PPDDERKKAEKAARSGNEEKAREILERLGYSEDEARELAKRLR

Variants of: B1
Experiment: folding stability dG (cDNA display proteolysis); higher = more stable
Details: PBS, room temperature
OBSERVED_PROPERTY: folding stability dG (kcal/mol)
Kindly provide the numeric value in kcal/mol only, without the unit symbol.

1. A39Q    0.366
2. L38H    0.687
3. I24V    0.856
4. A39V    2.33
5. E19P    1.61

Reported folding stability dG for E37G was 1.38

folding stability dG reported for this variant G16S : 1.22

// field: folding stability dG; key: R41Q ; value = 1.78

Record N17W . Reported folding stability dG: 1.98

# folding stability dG of K20S = 1.61

Recorded folding stability dG (variant D33G ): 1.59
